src = patent US9783536B2

ASSAYED TARGET: GST fusion human ERK2 protein (Homo sapiens)
Construct: purchased Carna Biosciences, Inc; host or cells: E. coli expression system
Sequence (P28482 whole entry, the tested form may be a part): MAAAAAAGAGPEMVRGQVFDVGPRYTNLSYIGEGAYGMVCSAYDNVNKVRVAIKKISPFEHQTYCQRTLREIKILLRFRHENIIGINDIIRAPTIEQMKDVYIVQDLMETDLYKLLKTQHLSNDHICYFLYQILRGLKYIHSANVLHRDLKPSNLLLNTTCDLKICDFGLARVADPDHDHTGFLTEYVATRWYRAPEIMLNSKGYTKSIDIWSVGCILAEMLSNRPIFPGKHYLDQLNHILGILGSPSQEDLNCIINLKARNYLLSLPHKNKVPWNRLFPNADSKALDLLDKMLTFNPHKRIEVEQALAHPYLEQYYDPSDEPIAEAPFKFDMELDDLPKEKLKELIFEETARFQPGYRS
MEASUREMENT PROTOCOL: ERK2 enzyme assay (1)
Type: biochemical
MEASUREMENT SETUP: 2.5 nmol/L ERK2, ATP 43.1 μmol/L; read-out: ERK2 enzyme inhibitory activity (1)
pIC50: −log10 of the molar value.
PROPERTY: pIC50

Cc1cnnc(Nc2ccc3ncc(-c4cnn(C)c4)cc3n2)c1	> 6.00
Cn1cc(-c2cnc3ccc(Nc4nnc(C5CCCC5)s4)nc3c2)c(C2CC2)n1	> 6.00
COc1ccc(Nc2ccc3ncc(-c4cnn(C)c4)cc3n2)nn1	5.00 to 6.00
c1ccc2c(Nc3cnc4ccc(Nc5nnc(C6CCCC6)s5)nc4c3)cncc2c1	5.00 to 6.00
COCc1csc(Nc2ccc3ncc(-c4cnn(C)c4)cc3n2)n1	5.00 to 6.00
CC(=O)N1CCC(Nc2cnc3ccc(Nc4nnc(C5CCCC5)s4)nc3c2)C1 (centres unmarked)	> 6.00
c1n[nH]cc1Nc1cnc2ccc(Nc3nnc(C4CCCC4)s3)nc2c1	> 6.00
CC(C)c1cnc(Nc2ccc3ncc(-c4cnn(CCCN5CCCC5)c4)cc3n2)s1	> 6.00
CC(C)Cc1cnc(Nc2ccc3ncc(-c4cnn(C)c4)cc3n2)s1	> 6.00
c1cnnc(Nc2ccc3ncc(-c4cnn(CCCN5CCCC5)c4)cc3n2)c1	> 6.00

Qu. Entry under review: Cn1cc(-c2cnc3ccc(Nc4nncs4)nc3c2)cn1 . Reported pIC50?
Ans. > 6.00

Qu. Another molecule to check: CC(=O)N1CCC(Nc2cnc3ccc(Nc4nnc(C5CCCC5)s4)nc3c2)CC1
Ans. > 6.00

Qu. Another molecule to check: c1cc(OC2CCOCC2)ncc1Nc1cnc2ccc(Nc3nnc(C4CCCC4)s3)nc2c1
Ans. > 6.00

Qu. Another molecule to check: c1nc2ccc(Nc3cc(C4CCC4)cnn3)nc2cc1-c1cnn(CCCN2CCCC2)c1
Ans. > 6.00

Qu. Another molecule to check: CN1CCCN(c2cnc3ccc(Nc4nnc(C5CCCC5)s4)nc3c2)CC1
Ans. > 6.00

Qu. Another molecule to check: Cn1cc(-c2cnc3ccc(Nc4nnc(C5CCC5)s4)nc3c2)cn1
Ans. > 6.00

Qu. Another molecule to check: c1ccc(Nc2cnc3ccc(Nc4nnc(C5CCCC5)s4)nc3c2)cc1
Ans. 5.00 to 6.00

Qu. Another molecule to check: OC1CCN(c2cnc3ccc(Nc4nnc(C5CCCC5)s4)nc3c2)CC1
Ans. > 6.00
